TEST DESCRIPTION: folding enthalpy; higher = less favourable; fluorescence melt of hairpins on a sequencing array, two-state fit
CONDITIONS USED: sodium 0.088 M
PARAMETER MEASURED: folding enthalpy (kcal/mol)
Express your answer in kcal/mol, writing the number without its unit.

Answered cases to consult:
>  <ENTRY SEQUENCE>
GAAACAGAAATGTTTC ((((((....))))))

>  <folding enthalpy [kcal/mol]>
-28.5

$$$$
>  <ENTRY SEQUENCE>
GATCATTTTATGATC ((((((...))))))

>  <folding enthalpy [kcal/mol]>
-30.4

$$$$
>  <ENTRY SEQUENCE>
GCGGACTTCCGC ((((....))))

>  <folding enthalpy [kcal/mol]>
-23.2

$$$$

folding enthalpy for GCTCTTGGAAACGAGAGC (((((.(....).))))) is -30.2

Query GGGACCGGAAACGACCCC (((..((....))..))) yields folding enthalpy of -25.2

For GATCCGTTGTCGGATC ((((((....)))))) the sequence record lists folding enthalpy as -44.4

# folding enthalpy (sequence: GGCTACGAAAGTAGTGCC ((((((....)))..))) ) is -16.6

GATCTCACCTGAGATC ((((((....)))))) has a reported folding enthalpy of -44.1

Sure, the documented folding enthalpy for GATCACTCATGTGATC ((((((....)))))) is -40.5

So, GAGAGTGGAAACATTCTC ((((.((....)).)))) ? Its folding enthalpy was -32.6

So, GATTACGAAAGTAGAATC ((((((....)))..))) ? Its folding enthalpy was -14.4

Form: sequence = GATTGCCGAAAGGCGATC (((.(((....))).))) ; folding enthalpy = -28.4

// sample GTCCTCGAAAGAGTGAC ((((((....))).))) , its folding enthalpy was -25.7

Short answer for CGCGACGGAAACGTGGCG (((.(((....))).))) : folding enthalpy was -49

Entry ATCAGTGAGAAATCACTGAA .................... ; folding enthalpy = -14.1

Query GGACCGGGAAACTGGTCC (((((.(....).))))) yields folding enthalpy of -44.9

Quick note, folding enthalpy for GGCCAGGGAAACTTGGCC (((((.(....).))))) landed at -35.7

Recorded result, GTGGTTGGAAACAACCAC (((((((....))))))) , folding enthalpy: -44.5
